Values were extracted from the Human Domainome abundance scans (Beltran et al. 2025).

B1: Zinc finger homeobox protein 3, residues 2244 to 2299; numbered along this chain, Q15911 (parent)
chain: SSRTRFTDYQLRVLQDFFDANAYPKDDEFEQLSNLLNLPTRVIVVWFQNARQKARK

Variants of: B1
Experiment: abundance fitness (aPCA) (normalised: wild type 0, dead -1); higher = more abundant; growth selection in yeast, the domain comes from the species named
Settings: Homo sapiens
Threshold rule: abundance fitness greater than or equal to 0.05 is T; below that, F.

sequence-variant	category
S1I	T
Y9S	T
Q15C	F
R3N	T
N21W	F
Y9N	F
Y9L	F
D16N	F
L32A	F
R3T	T
S2A	F
